// values below are reported CC50 at 72 h
method-summary: Cytotoxicity against african green monkey Vero cells after 72 hrs by MTT assay
Format: cell-based
condition: chlorocebus sabaeus

Illustrative cases are given below, each with its answer.
- compound: "O[C@@H]1Cc2cc(Cl)ccc2N[C@H](c2ccc(Cl)cc2)C1 (relative stereo)"
  recorded-result: "76.6 µM"
- compound: "COc1cccc([C@@H]2C[C@H](O)Cc3ccccc3N2)c1 (relative stereo)"
  recorded-result: "> 300 µM"
- compound: "O[C@@H]1Cc2cc(OC(F)(F)F)ccc2N[C@H](c2ccccc2)C1 (relative stereo)"
  recorded-result: "124 µM"
- compound: "Clc1ccc2c(c1)C[C@H]1C[C@@H](c3ccccc3Cl)N2O1 (relative stereo)"
  recorded-result: "109 µM"

Query compound follows.
Please look up its CC50 at 72 h: FC(F)(F)Oc1ccc2c(c1)C[C@H]1C[C@@H](c3ccccc3)N2O1 (relative stereo)
> 300 µM

---

// values below are reported Selectivity Index
method-summary: Selectivity index, CC50 for african green monkey Vero cells to IC50 for Trypanosoma cruzi 320I01 epimastigote
Format: functional
Form rule: numeric answer, no unit written next to it.

Illustrative cases are given below, each with its answer.
- molecule: "O[C@@H]1Cc2cc(Cl)ccc2N[C@H](c2ccc(Cl)cc2)C1 (relative stereo)"
  Selectivity Index: 4.65
- molecule: "O[C@@H]1Cc2cc(Cl)ccc2N[C@H](c2c(Cl)cccc2Cl)C1 (relative stereo)"
  Selectivity Index: 3.36
- molecule: "Clc1ccc2c(c1)C[C@H]1C[C@@H](c3ccccc3Cl)N2O1 (relative stereo)"
  Selectivity Index: 6.17

Query molecule follows.
Please look up its Selectivity Index: O[C@@H]1Cc2cc(F)ccc2N[C@H](c2ccc(Cl)cc2)C1 (relative stereo)
4.21

---

method-summary: Selectivity index, CC50 for african green monkey Vero cells to IC50 for Trypanosoma cruzi 320I01 epimastigote
Format: functional
Response field label: string, one of true (1) (Selectivity Index strictly below 5) or false (0).

As a guide, the following entries are already answered.
- molecule: "O[C@@H]1Cc2cc(Br)ccc2N[C@H](c2ccccc2)C1 (relative stereo)"
  class-assignment: "true (1)"
- molecule: "O[C@@H]1Cc2cc(Cl)ccc2N[C@H](c2ccccc2F)C1 (relative stereo)"
  class-assignment: "false (0)"
- molecule: "Fc1cccc(Cl)c1[C@@H]1C[C@@H]2Cc3ccccc3N1O2 (relative stereo)"
  class-assignment: "false (0)"

Answer whether the molecule O[C@@H]1Cc2ccccc2N[C@H](c2cccc(Cl)c2)C1 (relative stereo) has Selectivity Index strictly less than 5
false (0)

Answer whether the molecule Cc1ccc2c(c1)C[C@H]1C[C@@H](c3ccccc3Cl)N2O1 (relative stereo) has Selectivity Index strictly less than 5
true (1)

Answer whether the molecule Fc1ccccc1[C@@H]1C[C@@H]2Cc3cc(Cl)ccc3N1O2 (relative stereo) has Selectivity Index strictly less than 5
false (0)

Answer whether the molecule O[C@@H]1Cc2cc(Cl)ccc2N[C@H](c2c(F)cccc2Cl)C1 (relative stereo) has Selectivity Index strictly less than 5
false (0)

Answer whether the molecule Cc1ccc([C@@H]2C[C@H](O)Cc3cc(C)ccc3N2)cc1 (relative stereo) has Selectivity Index strictly less than 5
false (0)

Answer whether the molecule Clc1ccc([C@@H]2C[C@@H]3Cc4cc(Cl)ccc4N2O3)cc1 (relative stereo) has Selectivity Index strictly less than 5
false (0)

Answer whether the molecule Brc1ccc2c(c1)C[C@H]1C[C@@H](c3ccccc3)N2O1 (relative stereo) has Selectivity Index strictly less than 5
false (0)

Answer whether the molecule O[C@@H]1Cc2cc(OC(F)(F)F)ccc2N[C@H](c2ccccc2)C1 (relative stereo) has Selectivity Index strictly less than 5
true (1)

Answer whether the molecule O[C@@H]1Cc2cc(Cl)ccc2N[C@H](c2ccccc2)C1 (relative stereo) has Selectivity Index strictly less than 5
true (1)

Answer whether the molecule Cc1ccc([C@@H]2C[C@@H]3Cc4cc(C)ccc4N2O3)cc1 (relative stereo) has Selectivity Index strictly less than 5
false (0)

Answer whether the molecule O[C@@H]1Cc2ccccc2N[C@H](c2c(Cl)cccc2Cl)C1 (relative stereo) has Selectivity Index strictly less than 5
false (0)

---

method-summary: Selectivity index, CC50 for african green monkey Vero cells to IC50 for Trypanosoma cruzi 320I01 amastigotes
Assay type: functional
// values below are reported Selectivity Index

Illustrative cases are given below, each with its answer.
- molecule: "Fc1cccc(Cl)c1[C@@H]1C[C@@H]2Cc3cc(Cl)ccc3N1O2 (relative stereo)"
  Selectivity Index: ">3"
- molecule: "O[C@@H]1Cc2ccccc2N[C@H](c2ccccc2)C1 (relative stereo)"
  Selectivity Index: ">3"
- molecule: "COc1cccc([C@@H]2C[C@@H]3Cc4ccccc4N2O3)c1 (relative stereo)"
  Selectivity Index: ">3"
- molecule: "O[C@@H]1Cc2ccccc2N[C@H](c2ccc(F)cc2)C1 (relative stereo)"
  Selectivity Index: ">3"

Query molecule follows.
Please look up its Selectivity Index: Cc1cccc([C@@H]2C[C@@H]3Cc4ccccc4N2O3)c1 (relative stereo)
>3

---

method-summary: Selectivity index, CC50 for human THP1 cells to IC50 for Leishmania chagasi MHOM/BR/74/PP75 amastigotes
Assay type: functional, THP-1
experimental-endpoint: Selectivity Index

Illustrative cases are given below, each with its answer.
- compound: "Clc1ccc([C@@H]2C[C@@H]3Cc4cc(Cl)ccc4N2O3)cc1 (relative stereo)"
  Selectivity Index: ">3"
- compound: "COc1cccc([C@@H]2C[C@@H]3Cc4ccccc4N2O3)c1 (relative stereo)"
  Selectivity Index: ">3"
- compound: "Clc1ccc([C@@H]2C[C@@H]3Cc4ccccc4N2O3)cc1 (relative stereo)"
  Selectivity Index: ">3"

Query compound follows.
Please look up its Selectivity Index: Cc1ccc([C@@H]2C[C@H](O)Cc3cc(C)ccc3N2)cc1 (relative stereo)
>1

---

method-summary: Selectivity index, CC50 for human THP1 cells to IC50 for Leishmania chagasi MHOM/BR/74/PP75 amastigotes
Format: functional, THP-1
experimental-endpoint: Selectivity Index

Please look up its Selectivity Index: O[C@@H]1Cc2ccccc2N[C@H](c2c(F)cccc2Cl)C1 (relative stereo)
>3

Please look up its Selectivity Index: Fc1ccc2c(c1)C[C@H]1C[C@@H](c3ccc(Cl)cc3)N2O1 (relative stereo)
>3

Please look up its Selectivity Index: O[C@@H]1Cc2cc(F)ccc2N[C@H](c2ccc(Cl)cc2)C1 (relative stereo)
>1

Please look up its Selectivity Index: Clc1ccc2c(c1)C[C@H]1C[C@@H](c3ccccc3Cl)N2O1 (relative stereo)
>3

Please look up its Selectivity Index: Brc1ccc2c(c1)C[C@H]1C[C@@H](c3ccccc3)N2O1 (relative stereo)
>3

---

method-summary: Cytotoxicity against african green monkey Vero cells after 72 hrs by MTT assay
Format: cell-based
condition: chlorocebus sabaeus
experimental-endpoint: CC50 at 72 h

- compound: "O[C@@H]1Cc2ccccc2N[C@H](c2ccc(Cl)cc2)C1 (relative stereo)"
  experimental-endpoint: "CC50 at 72 h"
  recorded-result: "> 300 µM"
- compound: "Cc1cccc([C@@H]2C[C@@H]3Cc4ccccc4N2O3)c1 (relative stereo)"
  experimental-endpoint: "CC50 at 72 h"
  recorded-result: "> 300 µM"

Please look up its CC50 at 72 h: Brc1ccc2c(c1)C[C@H]1C[C@@H](c3ccccc3)N2O1 (relative stereo)
> 300 µM

Please look up its CC50 at 72 h: O[C@@H]1Cc2ccccc2N[C@H](c2cccc(Cl)c2)C1 (relative stereo)
295 µM

Please look up its CC50 at 72 h: O[C@@H]1Cc2ccccc2N[C@H](c2ccccc2)C1 (relative stereo)
> 300 µM

Please look up its CC50 at 72 h: Clc1ccc2c(c1)C[C@H]1C[C@@H](c3ccc(Br)cc3)N2O1 (relative stereo)
> 300 µM

Please look up its CC50 at 72 h: Fc1ccc([C@@H]2C[C@@H]3Cc4ccccc4N2O3)cc1 (relative stereo)
> 300 µM

Please look up its CC50 at 72 h: O[C@@H]1Cc2cc(Cl)ccc2N[C@H](c2ccccc2Cl)C1 (relative stereo)
106 µM

Please look up its CC50 at 72 h: O[C@@H]1Cc2cc(Br)ccc2N[C@H](c2ccccc2)C1 (relative stereo)
42.1 µM

---

method-summary: Selectivity index, CC50 for african green monkey Vero cells to IC50 for Trypanosoma cruzi 320I01 amastigotes
Format: functional
experimental-endpoint: Selectivity Index

Illustrative cases are given below, each with its answer.
- compound: "O[C@@H]1Cc2ccccc2N[C@H](c2c(F)cccc2Cl)C1 (relative stereo)"
  recorded-result: ">3"
- compound: "O[C@@H]1Cc2cc(Cl)ccc2N[C@H](c2ccccc2Cl)C1 (relative stereo)"
  recorded-result: ">1"
- compound: "Brc1ccc2c(c1)C[C@H]1C[C@@H](c3ccccc3)N2O1 (relative stereo)"
  recorded-result: ">5"

Query compound follows.
Please look up its Selectivity Index: O[C@@H]1Cc2cc(Cl)ccc2N[C@H](c2c(F)cccc2Cl)C1 (relative stereo)
>2

---

method-summary: Cytotoxicity against african green monkey Vero cells after 72 hrs by MTT assay
Format: cell-based
condition: chlorocebus sabaeus
// values below are reported CC50 at 72 h

- compound: "O[C@@H]1Cc2cc(Cl)ccc2N[C@H](c2ccccc2F)C1 (relative stereo)"
  recorded-result: "182 µM"
- compound: "c1ccc([C@@H]2C[C@@H]3Cc4ccccc4N2O3)cc1 (relative stereo)"
  recorded-result: "> 300 µM"
- compound: "O[C@@H]1Cc2cc(F)ccc2N[C@H](c2ccc(Cl)cc2)C1 (relative stereo)"
  recorded-result: "194 µM"
- compound: "Clc1ccccc1[C@@H]1C[C@@H]2Cc3ccccc3N1O2 (relative stereo)"
  recorded-result: "111 µM"

Query compound follows.
Please look up its CC50 at 72 h: O[C@@H]1Cc2ccccc2N[C@H](c2c(F)cccc2Cl)C1 (relative stereo)
> 300 µM
